# protocol-notes: yeast display, Sf9 membrane polyspecificity reagent, FACS + sequencing; frameworks hold sequencing errors

residues	polyreactivity (PSR sort gate)
QVQLVESGGGVVQAGGSLRLSCAASGSIFSLYAMGWYRQAPGNERELVDAISSSGTSTYYADSVKGRFTISRDNAKNSVYLHMNSLKPEDTAVYYCNAYRRRATYNGDYWGQGTQVTVSS	high polyreactivity
QVQLVESGGGLVQAGGSLRLSCAASGSTFQWYTMGWYRQAPGKERECVAAISRSGGRTYYADSVKGRFTISRDNAKNTVYLQMNSLKPVDTAVYYCAKYYYLYWSSQRDYWGQGTQVTVSS	high polyreactivity
QVQLVESGGGLVQAGGSLRLSCAASGFTFERNAMGWYRQAPGKERELVATINGSSDSTYYSDSVKGRFTISRDNAKNTVYLQMNSLKPEDTAVYYCNADSITEGNSRYSHFDYWGQGTQVTVSS	low polyreactivity
QVQLVESGGGLVQAGGSLRLSSAASGSTFRYYPMGWYRQAPGKERELLARISWRGGSTYYADSVKGRFTISRDNAKNTVYLQMNSLKPEDTAVYYCAAVRWVRYRTSAYEYWGQGTQVTVSS	high polyreactivity
QVQLVESGGGFVQAGGSLRLSCAASGSIFVTYAKGWYRQAPGKERDLVAAIKYSGGSTYYADSVKGRFTISRDYAKNTVYLQMNSLKPEDTAVYYCAADERVDQGWIRMDYWGQGTQVTVSS	low polyreactivity
QVQLVESGGGLDQAGGSLRLSCAASGIIFRSNAMGWYRQAPGKERELVAAITGRGTRTYYADSVKGRFTISRDNAKNTVYLQMNSLKPEDTAVDYCNTGQTRGMGYWGQGTQVTVSS	high polyreactivity
QVQLVESGGGLVQAGGSLRLSCAASGLIFVNYAMGWYRQAPGKERELVAAISVSGGSTYYADSVKGRFTISRDNAKNTVYLQMNSLNPEDTAVYYCNAYFRSQRYGYRVDYWGQGTQVTVSS	high polyreactivity
QVQLVESGGGLVQAGGSLRLSCAASGITFGRNTMGWYRQAPGKERELVAAIDSGGNTYADSVKGRFTISRDNAKNTVYLQMNSLKPEDTAVYYCAVDGGEFSSSGYWGQGTQVPVSS	low polyreactivity
QVQLVETGGGLVQAGGSLRLSCAASGSTFYYNAMGWYRQAPGKERELVARITRSGGSTYADSVKGRFTISRDNAKNSVYLQMNSLKPEVTAVYYWNADAYGTPEFTSYALRYDYWGQGTQVTVSS	low polyreactivity
QVQLVESGGGLVQAGGSLRLSCAASGFTFWYYAMGCYRQAPGKERELVPSISSIGGSTYYADSVKGRFTISRDNAKYTVYLQMNSLKPEDTAVYYCAARYKFLRGGVRRDYLGQGTQVTVSS	high polyreactivity
QVQLVDSGGGLVHAGGSLRLSCHASGRTFRGNAMGWYRQAPGKESELVAAITRRTASTYYADSVKGRFTISRDNAKNTVYLQMNSLKPEDTAVYDCAADSYMKRPYYAGYYYWGQGTQVTVSS	high polyreactivity
QVQLVESGRGLVQAGGSLRLSCAASGRTLAFNAMGWYRQAPGKERELVAVIRNGTSTNYADSVKGRFTISRDNAKNTVYLQMNSLKPEDTAVYYCNVPYYLPSYLSGYDYWGQGTQVTVSS	low polyreactivity
QVQLVESGGGLVQAGGSLRLSCAPSGSIFGVYAMGWYRQAPGKERELVAAISSRGSSTYYADSVKGRFTISRDNAKNTVYLQMNSLKPEDTAVYYCAARPGIRSYPPGYGYWGQGTQVTVSS	high polyreactivity
QVQLVESGGGLVQAGGSLRLSCAASGRTFYRNVMGWYRQAPGKVRELVAVITSGGRTNYADSVKGRFTISRDNAKNTVYLQMNSLKPEDTAVYSCNTALSSRSNKMYYWGQGTQVTVSS	high polyreactivity
QVQLVESGGGLVQAGGSLRLSCAASGFIFRLYAMGWYRQAPGKERELVAAISRGGSTTYADSVKGRFTISRDNAKNTVYLQMNSLKPEDTAVYYCATEGDYVAYLYDYWGQGTQVTVSS	low polyreactivity
QVQLVESGGGLVQAGGSLRLSCAASGRIFLRYAMGWYRQAPGKERELVAAIDFSAGSTYYADSVKGRFTISRDNAKNTVYLQMNSLKPEDTAVYYCATRLGVLYDYWGQGTQVTVSS	low polyreactivity
QVQLVESGGGLVQAGGSLRLSCAASGRTFDSYAMGWYRQAPGKERELVAAISRAGGTNYADSVKGRFTISRDNAKLTVYLQMNRLKPDDTEVYYCAVRQAVYGLRSDFYYWGQGSQVTVSS	high polyreactivity
QVQLVESGGGLVQAGGSLRLSCAASGITLYLNAMGWYRQAPGKERELVAAITASGGSTYADSVKGRFTISRDNAQNTVYLQMNSLKPEDTAVYYCAADVIYEYYFTFGVGYYEYDYWGQGTQVTVSS	low polyreactivity
QVQLVESGGGVVQAGGSLRLSCAASGRTFPGYAMGWYRQAAGKERELVAAITRGSTNYADSVKGRFTISRDNAKNTVYKQMNSLKPEATAVYYCAADFQYYFFWEEDYWGHGTQVTVSS	low polyreactivity
QVQLVESRGGLVQAGGSLRLSCAASGSIFRGYAMGWYRQAPGKERELVAAIRRGVITNYADSVKGRFTISRDNAKNTVYLQMNSLKPEDTAVYYCYAVRRWRTSQFDYWGQGTLVTVSS	low polyreactivity
QVQLVESGGGLVQAGGILRLSCAASGGIFSVYAMGWYRQAPGKERELVASITVSGGSTSYADSVKGRFTISRDNAKNTVYLQMNCLKPEDTAVYYCAADLLRYFGYYDYDSWGQGTQVTVSS	low polyreactivity

---

# protocol-notes: yeast display, Sf9 membrane polyspecificity reagent, FACS + sequencing; frameworks hold sequencing errors
measurement-label: polyreactivity (PSR sort gate)

>>> df
                                   residues   experimental_value
0  QVQLVESGGGLVQAGGSLRLSCASSGFIFRHYAMGWYRQAPGKARELVAVINWSGSSTYYADSVKGRFTISRDNAKNTVYLQMNSLKPEDTAVYYCAVRSLRVDKYGYWGQGTQVTVSS  high polyreactivity
1  QVQLVESGGGLVQAGGSLRLSCAASGRIFYRYAMGWYRQAPGKERELVASITSGGSTTYYADSVKGRFTISRDNAKNTVYLQMNSLKPEDTAVYYCAARPRYRKEYDYWGQGTQVTVSS  high polyreactivity

---

# protocol-notes: yeast display, Sf9 membrane polyspecificity reagent, FACS + sequencing; frameworks hold sequencing errors

residues	polyreactivity (PSR sort gate)
QVQLVESGGGLVQAGGSLRLSCAASGSIFGYNAMGWSRQAPGKERELVAGITSGTSTNYADSVKGRFTISRDNAKNTVYLQMNSLKPEDTEVYYCARTSYRFYRKRYYWGQGTQVTVSS	high polyreactivity
QVQLVESRGGLVQAGGSLRLSCAASGSTFRYYAMGWYRQAPGKERELVATITARGGSTYADSVKGRFTISRDNAKNTVYLQMNSLKPEDTAVYYCAKRYGRYWDSTYSGDYDYWGQGTQVTVSS	high polyreactivity
QVQLVESGGGLLQAGGILRLSCAASGRTFGLYAMRWYRQAPGKERELVAAIRGSAGSTYYADSVKGRFTISRDNAKNTVYLQMNSLKPEDTAVYYCATVGYPSLWYGYGYWGQGTQVTVSS	low polyreactivity
QVQLVESGGGLVQAGGSLRLSCAASGSTFAYYAMGWYRQAPGKERELVAAITWSGGSTSYADSVKGRFTISRDNAKNTVYLQMNSLKPEDTGVYYCNADDKPLDWREYNYWGQGTQVTVSS	low polyreactivity
QVQLVESGGGLVQAGGSLRLSCAAYGITFPSYVMGWYRQAPGKERELVAAISWRGGSTYYADSVKGRFTISRDNAKNTVYLQMNSLKPEDTAVYYCAAEYLVWYTFYPKYDYWGQGTQVTVSS	high polyreactivity
QVQLVESGGGLVQAGGSLRLSCAASGFIFYAYVMGWYRQAPGKERELVAAISRNGGSTYYADSVKGRFTISRDNAKNTVYLQMKSLKPEDTAVYYCAALSYYRYSQEDDYWGQGTQVTVSS	high polyreactivity
QVQLVDSVGGLVQAGGSLRLSCAASGRTFSNYAMGWYRQAPGKERQLVAAISGTGDNTYYADSVKGRFTISRDNAKNTVYLQMNSLKPEDTAVYYCKTVYYGWPRRYGYWGQGTQVTVSS	high polyreactivity
QVQLVESGGGLVQAGGSLRLSCAASGSTFSYYDMGWYRQAPGKERELVAAISWNGGTTYYADSVKGRFTISRDNAKNTVYLQMNSLKPEDTAVYYCAATWDFYWAPDDSWGQGTQVTVSS	low polyreactivity
QVQLVESGGGLVQAGGSLRLSCAASGSIFLYARGWYRQAPGKERELVAAINRRGGSTYYADSVKGRFTISRDNAKNTVYLQMNSLKPEDTAVYYCAVVYLLPRYWWRYDYWGQGTQVTVSS	low polyreactivity
QVQLVESGGGLVQAGGSLRLSCAASGSTFASNVMGWYRQAPGKERELVAAITRGDRTHYADSVKGRFTISRDNAKNTVYLQMNSLKPEDTAVYYCAARFIFWVYDYDYWGQGSQVTVSS	low polyreactivity
QVQLVESGGGLVQAGGSLRLSCAASGRIFKSYVMGWYRQAPGKERELVAAISITGGSTYYADSVKGRFTISRDNAKNTVYLQMNSLKPEDTAVYYCAAEWFGSVQPAYDYWGQGTQVTVSS	high polyreactivity

The reported measurements were obtained from the nanobody polyreactivity screen of Harvey et al. (2022).
